Please respond with reported self-cleavage for every item in the list.
B1: LINE1-full (parent)
chain: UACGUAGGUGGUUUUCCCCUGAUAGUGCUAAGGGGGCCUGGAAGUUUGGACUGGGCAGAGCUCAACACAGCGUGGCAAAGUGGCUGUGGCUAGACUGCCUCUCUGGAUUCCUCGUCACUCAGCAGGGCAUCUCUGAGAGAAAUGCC

- Variants of: B1
- ASSAY_SUMMARY: self-cleavage, relative activity (ratio to wild type); higher = more cleavage; in vitro, sequencing; the parent is a self-cleaving ribozyme
Answer as a number with no unit attached.

Given item U9A U108A , the value recorded as its self-cleavage is 1.01

Just so you know, measured self-cleavage for C99A U143A came out at 0.84

Per the records, this variant ( A67U U132C ) has self-cleavage equal to 0.16

What the record says about A2G A57U : self-cleavage is 0.38

Record A6G C17U . Reported self-cleavage: 0.28

Lab note: C113A A117U gave self-cleavage of 1.03

Notebook: G127U U143C , self-cleavage read as 1.66

The variant listed as G34U A79G shows self-cleavage equal to 0.55

Noted for G82A A129G : its self-cleavage reads 2.28

Field self-cleavage (entry U20A A22U ) reads 1.56

Recorded result, U9C U104A , self-cleavage: 1.4

Query G8A A69C yields self-cleavage of 0.04

Data point: C19A A42G ; self-cleavage = 0.33

Notebook: G41U U62A , self-cleavage read as 0.04

# variant G88A U134A ; its self-cleavage = 0.06

Field self-cleavage (entry U1A U73A ) reads 1.67

Data point: C95U U104C ; self-cleavage = 0.54

# variant A43G C128G ; its self-cleavage = 0.77

self-cleavage reported for this variant C51U U119C : 1.73

In plain terms, U12G U81G has a documented self-cleavage of 0.68

Quick note, self-cleavage for A92U U108A landed at 0.6

Record summary for A42G A124G : reported self-cleavage = 0.87
